Where these numbers come from: PubChem BioAssay (NCATS)

I'd appreciate it if you could supply parasite growth, % of control (lower = inhibition) values for the items below.
Experiment: qHTS profiling of the MIPE4 collection as inhibitors of Plasmodium falciparum (DD2) proliferation (Rep 2) (AID 743346)
Details: P. falciparum Dd2 in erythrocytes, SYBR Green DNA, 72 h; at 28.5 µM unless noted
Give bare numbers, in %.

Example compounds with recorded parasite growth, % of control (lower = inhibition):
O=C(CCCN1CCN(c2ccc(F)cc2)CC1)NC1c2ccccc2CSc2ccccc21 (centres undefined) ... 80.9
CCC(c1ccc(O)cc1)C(CC)c1ccc(O)cc1 (centres undefined) ... 75

Field: parasite growth, % of control (lower = inhibition). Fill in for each record below.
1. CN(C)c1ccc(-c2nc3ncc(Cl)c(N4CCN(CC(=O)Nc5nccs5)CC4)c3[nH]2)cc1
2. Cc1csc(-c2nnc(Nc3ccc(Oc4ncccc4-c4ccnc(N)n4)cc3)c3ccccc23)c1
3. COc1cc2nccc(Oc3ccc(NC(=O)Nc4cc(C)on4)c(Cl)c3)c2cc1OC

Reply text:
8.18
47.8
27.3

====

Tested on: NIH3T3
Experiment: Cytotoxic Profiling of Annotated Libraries Using Quantitative High-Throughput Screening (AID 1296008); further: on the % scale 0 is the no-effect control and ±100 the full control effect
Settings: Five cell lines viability, CellTiter-Glo ATP luminescence, 48-72 h; stronger effect = lower value
Records with an inconclusive call do not appear.
Result type: max response (%)
Numbers only, in %.

Worked set:
CN(C)CCOc1ccc(-c2nc(-c3ccc4c(c3)CCC4=NO)c(-c3ccncc3)[nH]2)cc1 ... 1.65
CCCCC[C@H](O)C=C[C@H]1[C@H](O)CC(=O)[C@H]1CC=CCCCC(=O)O ... -18.8
COc1ccc2ccc(=O)oc2c1CC=C(C)C ... -31.4
COc1cc(F)c(C(C)C)cc1-c1ccc(C(F)(F)F)cc1CN1C(=O)O[C@H](c2cc(C(F)(F)F)cc(C(F)(F)F)c2)[C@@H]1C ... 0.998
CN(C(Cc1ccc(OS(=O)(=O)c2cccc3cnccc23)cc1)C(=O)N1CCN(c2ccccc2)CC1)S(=O)(=O)c1cccc2cnccc12 (centres undefined) ... -12.5

For each listed entry, give its max response.
1. COc1ccc2c(c1)c(C1=C(c3c[nH]c4ccccc34)C(=O)NC1=O)cn2CCCN(C)C
2. CC[C@H](C=C[C@@H](C)[C@H]1CC[C@H]2[C@@H]3CC=C4C[C@@H](O)CC[C@]4(C)[C@@H]3CC[C@]12C)C(C)C
3. C#C[C@]1(O)CC[C@H]2[C@H]3CCc4cc(OC)ccc4[C@H]3CC[C@@]21C
4. O=[N+]([O-])c1ccc(Nc2ccccc2-c2ccccc2)c2nonc12

Reply text:
1. 4.3
2. 3.97
3. 2.86
4. -25.2

====

Assay: qHTS drug screen for cell cycle checkpoint inhibitors in PARPi-resistant BRCA-mutant ovarian cancer cell lines. (AID 1963452)
Settings: PEO1/OlaR viability, CellTiter-Glo luminescence, 96 h; measured here: PEO1 parental Z-AUC; stronger effect = lower value
Assign labels as follows, please: Yes for Z-AUC below 0.1; No for Z-AUC equal to or exceeding 0.1.

Cc1nn(Cc2ccccc2Cl)c(C)c1CN(C)CC(O)COc1ccc(Cl)cc1 (stereo not drawn) ... No

Inquiry: Confirm or reject: Z-AUC of CC(C)C[C@@H](C(=O)N[C@H](C(=O)OC1CCCC1)c1ccccc1)[C@H](O)C(=O)NO lies strictly below 0.1
Reply text: Yes

Inquiry: Given the entry COc1ccc(-c2ccc3ncc4c(c3c2)n(-c2ccc(N3CCNCC3)c(C(F)(F)F)c2)c(=O)n4C)cn1 , would its reported Z-AUC be below 0.1?
Reply text: Yes
